# TARGET_DESC: T1, chemokine receptor CCR3 (human, UniProt P51677 1-355)
# T1 construct: whole, on cells; Aequorin assays used whole cells
# T1 sequence (looked up): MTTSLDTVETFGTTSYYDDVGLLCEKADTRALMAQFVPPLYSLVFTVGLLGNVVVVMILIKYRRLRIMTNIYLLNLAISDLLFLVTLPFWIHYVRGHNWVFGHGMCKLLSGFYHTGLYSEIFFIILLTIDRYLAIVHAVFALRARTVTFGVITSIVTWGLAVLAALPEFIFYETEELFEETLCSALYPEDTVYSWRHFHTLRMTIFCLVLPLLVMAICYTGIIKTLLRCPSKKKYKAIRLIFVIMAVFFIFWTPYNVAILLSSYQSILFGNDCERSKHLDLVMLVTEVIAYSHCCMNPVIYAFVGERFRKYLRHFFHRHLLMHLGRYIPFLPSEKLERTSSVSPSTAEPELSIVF
# ASSAY_COMMENT: radioligand competition, 125I-Eotaxin tracer on CCR3
OUTCOME_MEASURE: Ki

BINDER	REPORTED_MEASUREMENT
processed chemokine PHC-1 (HCC-1, residues 9-74) (ligand, also called HCC-1[9-74]) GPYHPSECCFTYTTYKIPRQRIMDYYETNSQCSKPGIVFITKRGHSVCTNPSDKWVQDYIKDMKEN	2.7 nM
